- target.or.test.system: Transcriptional activator protein LasR (Pseudomonas aeruginosa (strain ATCC 15692 / PAO1 / 1C / PRS 101 / LMG12228))
- Sequence (P25084 whole entry): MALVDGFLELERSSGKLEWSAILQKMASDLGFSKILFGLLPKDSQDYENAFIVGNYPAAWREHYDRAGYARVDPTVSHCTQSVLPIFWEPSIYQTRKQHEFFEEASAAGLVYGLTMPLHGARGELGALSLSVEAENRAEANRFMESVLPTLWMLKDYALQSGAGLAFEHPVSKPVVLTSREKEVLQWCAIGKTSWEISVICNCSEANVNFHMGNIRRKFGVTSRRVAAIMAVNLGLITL
- test.protocol: Inhibition of LasR in Pseudomonas aeruginosa PAO-JP2 harboring plasI-LVAgfp incubated for 6 hrs by fluorescence method
Reported pIC50 values for the following compounds.
Note on units: pIC50 is unitless, being -log10 of a concentration expressed in mol/L.

// known answers, use as guide
1. CCC(=O)CC(=O)Nc1ccccc1; 5.01
2. O=C(CCCc1ccccc1)N[C@H]1CCOC1=O; 3.76

// recorded pIC50 for "O=C(Cc1ccc(C(F)(F)F)cc1)N[C@H]1CCOC1=O" : 5.52

* * *

Reported pEC50 values for the following compounds.
- target.or.test.system: Transcriptional activator protein LuxR (Aliivibrio fischeri)
- Sequence (P12746 whole entry): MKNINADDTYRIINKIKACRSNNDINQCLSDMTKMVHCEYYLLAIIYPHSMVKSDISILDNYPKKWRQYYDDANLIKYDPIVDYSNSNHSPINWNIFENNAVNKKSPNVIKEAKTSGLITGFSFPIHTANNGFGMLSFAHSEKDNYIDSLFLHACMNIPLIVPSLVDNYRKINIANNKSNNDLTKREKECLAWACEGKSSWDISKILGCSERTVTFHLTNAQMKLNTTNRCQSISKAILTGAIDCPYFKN
- test.protocol: Agonist activity at Aliivibrio fischeri LuxR by luminescence method
Note on units: pEC50 is unitless, being -log10 of a concentration expressed in mol/L.

// known answers, use as guide
1) O=C(CC(=O)N[C@H]1CCOC1=O)CC1CCCCC1; 5.96
2) CC(C)CC(=O)CC(=O)N[C@H]1CCOC1=O; 6.30

Now turn to the next compound.
// recorded pEC50 for "O=C(CC(=O)N[C@H]1CCOC1=O)CC1CCCC1" : 6.60

* * *

- target.or.test.system: UniProt P12746
- test.protocol: Antagonist activity at Aliivibrio fischeri LuxR by luminescence method
Reported pIC50 values for the following compounds.
Note on units: pIC50 is unitless, being -log10 of a concentration expressed in mol/L.

// known answers, use as guide
1. CCCCCCCCCS(=O)(=O)NC1CCOC1=O (configuration not stated); 4.40
2. CCCC(=O)CS(=O)(=O)NC1CCOC1=O (configuration not stated); 4.40
3. O=C(CC(=O)NC1CCOC1=O)Cc1cccc(Cl)c1 (configuration not stated); 5.40
4. O=C(Cc1ccccc1)CS(=O)(=O)NC1CCOC1=O (configuration not stated); 4.40
5. Cc1ccc(CC(=O)CC(=O)NC2CCOC2=O)cc1 (configuration not stated); 5.40

pIC50 value, target or system UniProt P12746, for O=C1OCCC1NS(=O)(=O)CCCc1ccccc1 (configuration not stated) : 4.70

* * *

- target.or.test.system: Transcriptional activator protein LasR (Pseudomonas aeruginosa (strain ATCC 15692 / PAO1 / 1C / PRS 101 / LMG12228))
- test.protocol: Inhibition of LasR in Pseudomonas aeruginosa PAO-JP2 harboring plasI-LVAgfp incubated for 6 hrs by fluorescence method
pIC50: −log10 of the molar value.
Reported pIC50 values for the following compounds.

1) CCCCCCC(=O)N[C@H]1CCOC1=O; < 4.00
2) CCCCCCCCCC(=O)NC1CCCC1 [N-CYCLOPENTYLDECANAMIDE]; < 4.30
3) CCC(=O)CC(=O)Nc1cccc(OC)c1; < 3.70

Now turn to the next compound.
// recorded pIC50 for CCC(=O)CC(=O)NC1CCCCC1=O (centres undefined) : < 4.00
